Biological target: ACE from rabbit lung (Oryctolagus cuniculus, UniProt P12822)
Sequence (P12822 34-1310): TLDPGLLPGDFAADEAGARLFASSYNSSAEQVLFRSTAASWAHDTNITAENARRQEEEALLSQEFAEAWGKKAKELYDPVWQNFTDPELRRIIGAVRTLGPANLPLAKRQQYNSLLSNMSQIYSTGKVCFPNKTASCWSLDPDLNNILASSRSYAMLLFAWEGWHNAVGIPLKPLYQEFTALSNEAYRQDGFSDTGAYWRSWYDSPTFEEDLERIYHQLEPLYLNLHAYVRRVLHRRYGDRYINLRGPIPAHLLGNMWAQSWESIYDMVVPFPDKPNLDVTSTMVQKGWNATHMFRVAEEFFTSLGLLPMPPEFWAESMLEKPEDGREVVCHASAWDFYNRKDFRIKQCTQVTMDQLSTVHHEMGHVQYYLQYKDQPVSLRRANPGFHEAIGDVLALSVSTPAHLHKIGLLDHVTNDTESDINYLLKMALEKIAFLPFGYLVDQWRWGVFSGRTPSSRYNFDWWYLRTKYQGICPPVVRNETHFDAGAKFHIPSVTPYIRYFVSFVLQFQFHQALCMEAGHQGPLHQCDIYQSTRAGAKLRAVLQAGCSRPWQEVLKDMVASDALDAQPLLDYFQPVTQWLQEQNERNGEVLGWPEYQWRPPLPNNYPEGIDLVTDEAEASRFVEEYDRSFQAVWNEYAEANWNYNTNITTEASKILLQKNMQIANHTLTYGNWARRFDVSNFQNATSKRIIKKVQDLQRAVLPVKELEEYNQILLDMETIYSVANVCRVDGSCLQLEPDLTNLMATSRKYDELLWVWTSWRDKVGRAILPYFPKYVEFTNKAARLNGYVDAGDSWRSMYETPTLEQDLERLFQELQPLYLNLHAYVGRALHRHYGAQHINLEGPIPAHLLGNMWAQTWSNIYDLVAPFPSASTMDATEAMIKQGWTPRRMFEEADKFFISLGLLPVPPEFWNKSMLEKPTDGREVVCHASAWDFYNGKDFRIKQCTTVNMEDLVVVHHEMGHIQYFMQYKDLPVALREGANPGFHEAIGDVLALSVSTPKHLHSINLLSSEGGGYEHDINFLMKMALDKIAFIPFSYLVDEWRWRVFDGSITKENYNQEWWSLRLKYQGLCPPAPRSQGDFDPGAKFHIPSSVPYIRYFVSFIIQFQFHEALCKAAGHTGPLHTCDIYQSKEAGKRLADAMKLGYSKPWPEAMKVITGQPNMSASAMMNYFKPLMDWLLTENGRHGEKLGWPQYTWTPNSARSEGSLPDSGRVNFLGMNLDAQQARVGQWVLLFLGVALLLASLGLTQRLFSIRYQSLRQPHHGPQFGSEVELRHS
Where a SMILES comes first, the peptide text is derived from it.
Labelling: IC50 reported below 10 µM becomes Criterion met; at or above becomes Criterion not met.

The examples below pair each entry with its known result.
- Compound: "N[C@@H](CC(=O)O)C(=O)NCC(=O)NCC(=O)O [DGG] (H-Asp-Gly-Gly-OH)"
  Assigned Class: "Criterion not met"
- Compound: "NCCCC[C@H](N)C(=O)N[C@@H](Cc1ccc(O)cc1)C(=O)N[C@@H](Cc1ccc(O)cc1)C(=O)O [KYY] (H-Lys-Tyr-Tyr-OH)"
  Assigned Class: "Criterion not met"
- Compound: "NCC(=O)NCC(=O)NCC(=O)O [GGG] (H-Gly-Gly-Gly-OH)"
  Assigned Class: "Criterion not met"
- Compound: "N=C(N)NCCC[C@H](NC(=O)[C@@H](N)Cc1c[nH]c2ccccc12)C(=O)N[C@@H](Cc1ccc(O)cc1)C(=O)O [WRY] (H-Trp-Arg-Tyr-OH)"
  Assigned Class: "Criterion met"
- Compound: "NC(=O)CC[C@H](NC(=O)[C@@H](N)Cc1c[nH]c2ccccc12)C(=O)N[C@@H](Cc1c[nH]c2ccccc12)C(=O)O [WQW] (H-Trp-Gln-Trp-OH)"
  Assigned Class: "Criterion not met"
- Compound: "N=C(N)NCCC[C@H](NC(=O)[C@@H](N)Cc1c[nH]c2ccccc12)C(=O)N[C@@H](Cc1ccccc1)C(=O)O [WRF] (H-Trp-Arg-Phe-OH)"
  Assigned Class: "Criterion not met"

We now examine a further compound.
## Task Determine if N[C@@H](Cc1c[nH]c2ccccc12)C(=O)N[C@@H](Cc1c[nH]c2ccccc12)C(=O)N[C@@H](Cc1c[nH]c2ccccc12)C(=O)O [WWW] (H-Trp-Trp-Trp-OH) shows IC50 strictly lower than 10 µM.
## Result Criterion met
